meta.source: patent US20230265187A1

Biological target: T1, human TIGIT on Jurkat cells (TIGIT/NFAT reporter Jurkat cells, BPS Bioscience #60538); Promega TIGIT Effector … (human, UniProt Q495A1 22-244)
T1 construct: whole, on cells; Same protein on two bought Jurkat lines (flow cytometry: BPS; bioassay: Promega); also called hu TIGIT cells; cells expressing human TIGIT
T1 sequence (looked up): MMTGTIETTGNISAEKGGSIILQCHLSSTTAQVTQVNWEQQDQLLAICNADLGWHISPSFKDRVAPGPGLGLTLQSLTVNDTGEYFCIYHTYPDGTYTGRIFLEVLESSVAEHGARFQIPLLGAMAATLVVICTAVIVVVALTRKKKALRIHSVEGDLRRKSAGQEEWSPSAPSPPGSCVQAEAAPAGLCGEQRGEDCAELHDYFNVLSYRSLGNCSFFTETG
Experiment: flow cytometry, TIGIT/NFAT Jurkat cells, 10 ug/ml
# MFI values compiled below
Provide the reading as a plain figure in MFI.

Examples from the recorded data:
# binder, unit-info, number
records = [
    ("43586p1.2.E1 (scFv, V domains shown) VH: EVQLLESGGGLVQPGGSLRLSCAASGFTFSDYLMTWVRQAPGKELEWVSTITWDGDRTYYADSVKGRFTISRDNSKNTLYLQMNSLRAEDTAVYYCAKHWTVFQYGMDVWGQGTTVTVSS VL: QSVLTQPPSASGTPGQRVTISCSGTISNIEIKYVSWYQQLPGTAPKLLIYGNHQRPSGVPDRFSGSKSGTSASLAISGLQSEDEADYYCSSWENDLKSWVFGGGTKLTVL", "MFI", 9480),
    ("43645p1.G5 (scFv, V domains shown) VH: EVQLLESGGGLVQPGGSLRLSCAASGFTFSSYYMSWVRQAPGKGLEWVSAISIFSGDSTYYADSVKGRFTISRDNSKNTLYLQMNSLRAEDTAVYYCAKSHTVLQYGMDVWGQGTTVTVSS VL: QSVLTQPPSASGTPGQRVTISCSGVTSNIRNYYVSWYQQLPGTAPKLLIYGNDQRPSGVPDRFSGSKSGTSASLAISGLQSEDEADYYCGTWDNTLNAWVFGGGTKLTVL", "MFI", 12400),
]

Problem: Tell me MFI reported for 43586p2.G01 (scFv, V domains shown) VH: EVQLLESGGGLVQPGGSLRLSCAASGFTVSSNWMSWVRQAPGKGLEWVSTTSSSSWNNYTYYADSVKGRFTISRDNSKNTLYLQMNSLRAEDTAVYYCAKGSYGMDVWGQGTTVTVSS VL: QSVLTQPPSASGTPGQRVTISCSGSNSNIGAKYLYWYQQLPGTAPKLLIYLNDRRPSGVPDRFSGSKSGTSASLAISGLQSEDEADYYCAFWDDHLKGWVFGGGTKLTVL
Result: 9720
